TARGET OR SYSTEM: T1, tau VQIVYK segment fibers (Homo sapiens)
T1 chain: VQIVYK
PROTOCOL: NMR
pKd: −log10 of the molar value. Square brackets hold non-standard residues; d marks the D form. Ends that are not written are not given here.
RECORDED METRIC: pKd

So for [dT][dL][dK][dI][dV][dW] [D-TLKIVW] , the logged pKd turned out to be ~5.70
